Each recorded value in this set is attributed to patent US9133219B2.

Test system: Escherichia coli
Assay: Anti-microbial activity assay, MIC by broth microdilution
Assay type: cell-based
Conditions: Escherichia coli; strain UB1005; read-out: MIC Escherichia coli UB1005
Result Type: MIC (µg/mL)
# value in µg/mL; strip the unit string

• COc1ccc2ncc(OCCCN3CC(NC(=O)c4ccc5c(c4)NC(=O)CS5)C3)nc2c1 [Example 8] = 16
• COc1cnc2ccc(OCCN3CCC(NC(=O)c4ccc5c(c4)NC(=O)CS5)CC3)nc2c1 [Example 18] = 8
• COc1ccc2ncc(SCCN3CCC(NCc4ccc5c(c4)OCCO5)CC3)nc2c1 [Example 41] = 8

In the following, a different molecule is considered.
Input: Given COc1ccc2ncc(SCCN3CCC(NC(=O)c4nc5c(cc4Cl)SCC(=O)N5)CC3)cc2c1 [Example 56] , state its recorded MIC.
Output: 4

====

Tested on: Escherichia coli
Experiment: Anti-microbial activity assay, MIC by broth microdilution
Assay type: cell-based
Conditions: Escherichia coli; strain UB1005; read-out: MIC Escherichia coli UB1005
MIC by entry:

Reference set (3 entries):
* COc1ccc2ncc(OCCN3CCC(NC(=O)c4cc5c(cc4Cl)SCC(=O)N5)CC3)cc2n1 | 8 µg/mL
* COc1ccc2ncc(OCCN3CCC(NC(=O)c4cc(-c5cccs5)on4)CC3)nc2c1 | > 32 µg/mL
* COc1ccc2ccc(OCCN3CCC(NC(=O)c4ccc5c(n4)NC(=O)CS5)CC3)nc2c1 | > 32 µg/mL

In the following, a different compound is considered.
Input: Given "O=C1CSc2ccc(C(=O)NC3CCN(CCOc4cnc5ccc([N+](=O)[O-])cc5n4)CC3)cc2N1" , state its recorded MIC.
Output: > 32 µg/mL

====

Tested on: Escherichia coli
Assay: Anti-microbial activity assay, MIC by broth microdilution
Type: cell-based
Conditions: Escherichia coli; strain UB1005; read-out: MIC Escherichia coli UB1005
Result Type: MIC

Reference set (3 entries):
* COc1cccc2ncc(OCCN3CCC(NC(=O)c4ccc5c(c4)NC(=O)CS5)CC3)nc12 | ≥ 32 µg/mL
* COc1ccc2ncc(OC(CN3CCC(NC(=O)c4ccc5c(c4)NC(=O)CS5)CC3)C(F)(F)F)nc2c1 (stereo not shown) | > 32 µg/mL
* COc1ccc2ncc(C(=O)OC[C@H]3CC[C@H](NC(=O)c4ccc5c(n4)NC(=O)CO5)CC3)cc2n1 | > 32 µg/mL

In the following, a different compound is considered.
Input: // lookup MIC | system=Escherichia coli | key= COc1ccc2ncc(OCCN3CCC(CNC(=O)c4cc(-c5cccs5)on4)C3)nc2c1 (stereo not shown)
Output: > 32 µg/mL
